- Tested on: SK-MEL-5 melanoma
- assay procedure: NCI-60 one-dose screen, 48 h
- assay setup: 10 µM
Compounds without any hit were thinned out: in the full panel of roughly 83,000, 20% have a hit. Activity calls are given as the source filed them. The calls were made as follows: active = growth percent below 10; inactive = the rest.
Your response should consist of one outcome taken from TRUE (active), FALSE (inactive)

Use the examples below as a reference point.
COc1cc(-c2cc(-c3cc(OC)c(OC)c(OC)c3)nc3nc(N)[nH]c(=O)c23)ccc1Oc1ccnc2cc(Cl)ccc12    FALSE
N#Cc1cnc2ccc(NCc3cnc[nH]3)cc2c1Nc1ccc(F)c(Cl)c1    FALSE
Cn1cnc([N+](=O)[O-])c1/C=C1\Oc2ccc(Cl)cc2C1=O    FALSE

Q: Just curious, what result did Cn1c(N)c(N=Cc2ccccc2)c(=O)n(C)c1=O get here?
Result: FALSE

Q: Just curious, what result did CS(=O)(=O)Nc1ccc(OCc2nnc(-c3ccc(Cl)cc3)o2)c(F)c1 get here?
Result: FALSE

Q: Just curious, what result did Cc1nc2cc(-n3c(-c4ccc(F)cc4)nc4ccccc4c3=O)ccc2n1Cc1ccccc1 get here?
Result: TRUE

Q: Just curious, what result did C=CCn1c(C)nc2cc(Nc3nc(Nc4ccc5nc(C)n(CC=C)c5c4)c4ccccc4n3)ccc21 get here?
Result: TRUE

Q: Just curious, what result did CCCCCc1cc[n+](CC(=O)c2ccc(Cl)cc2)cc1 get here?
Result: FALSE

Q: Just curious, what result did O=C(O)CN1C(=O)C=CC1=O get here?
Result: FALSE

Q: Just curious, what result did CC(C)C[C@H](NC(=O)Cn1ccc2ccccc2c1=O)B(O)O get here?
Result: FALSE

###

- Tested on: HOP-62 NSCLC
- assay procedure: NCI-60 one-dose screen, 48 h
- assay setup: 10 µM
Compounds without any hit were thinned out: in the full panel of roughly 83,000, 20% have a hit. Activity calls are given as the source filed them. Rule for the calls: active = growth percent below 10; inactive = the rest.
Your response should consist of one outcome taken from YES for active, NO for inactive

CCCCCC(=O)N1c2ccccc2NC2=C(C(=O)CC(c3ccc(OC)c(OC)c3)C2)C1c1ccc(C(F)(F)F)cc1 (stereo not given)    NO

Q: Just curious, what result did Cn1c([N+](=O)[O-])cnc1C=C1C(=O)c2ccccc2C1=O get here?
Result: NO

Q: Just curious, what result did OC(CNC1CCCC1)Cn1c2ccccc2c2ccccc21 (stereo not given) get here?
Result: NO

Q: Just curious, what result did CCCCCCCCCCCCCCCCn1cc[n+](C)c1 get here?
Result: YES

Q: Just curious, what result did CCCc1ccnc(NS(=O)(=O)c2ccc(N)cc2)n1 get here?
Result: NO

Q: Just curious, what result did S=C(Cc1ccc(-c2ccccc2)cc1)N1CCOCC1 get here?
Result: NO

Q: Just curious, what result did COc1ccc(N2CCN(c3nc(-c4ccccc4)c(C#N)c(=O)[nH]3)CC2)cc1 get here?
Result: NO

###

- System: HCC-2998 colon
- assay procedure: NCI-60 one-dose screen, 48 h (100 = growth as untreated, 0 = no growth, -100 = all killed)
- assay setup: 10 µM
About 83,000 compounds went through this panel and 20% of them were active in at least one assay; those are over-represented in the sample as a whole.
Please provide measured growth for the entries that follow.
Answers are plain numbers, in %.

Look over these answered cases.
CC(=O)Nc1ccc2c(c1)C(N1CC3CCC(CC3)C1)c1ccccc1-2 (stereo not given)    99.5
O=C(Nc1cccc(-c2nc3ccccc3[nH]2)c1)c1cccc(NC(=O)c2ccco2)c1    96.6
CNC(=O)c1cc(Oc2ccc(NC(=O)Nc3ccc(Cl)c(OC(C)C)c3)c(F)c2)ccn1    66.7
O=C(COCc1c(-c2ccccc2)no[n+]1[O-])Nc1nc(-c2ccc(Cl)cc2)cs1    104
O=C(CSc1nnc(-c2ccc(Cl)cc2)o1)c1ccccc1    87.5
Cc1ccc(-n2nnc3c(sc4ccccc43)c2=O)cc1    70.8
CCOC(=O)C(=O)Cc1cccnn1    112
CC(C)C(C)C(N)C(=O)O (stereo not given)    101

Batch request: growth for each of the following compounds.
1. Cc1nc2sccn2c1-c1csc(Nc2cccc(Cl)c2C)n1
2. O=[N+]([O-])c1ccc2c(c1)Cc1cc(I)ccc1-2
3. O=C(NCCc1nccs1)c1cnc2c(S)cccc2c1
4. O=C1CC[C@@H](C(=O)N[C@H]2CSSC[C@@H](C(=O)NCCc3ccccc3)NC(=O)[C@H](Cc3ccccc3)NC(=O)[C@@H]3CCCN3C(=O)[C@@H]3CCCN3C2=O)N1
5. COc1ccc(C2CC(c3ccc(-c4ccccc4)cc3)=NN2c2ccc(S(N)(=O)=O)cc2)cc1 (stereo not given)

Result:
69
103
35.5
94.3
58.2

###

- Test system: SK-MEL-2 melanoma
- assay procedure: NCI-60 one-dose screen, 48 h (100 = growth as untreated, 0 = no growth, -100 = all killed)
- assay setup: 10 µM
- Procedure: Growth inhibition of the SK-MEL-2 human tumor cell line is measured as a screen for anti-cancer activity. Cells are grown in 96 well plates and exposed to the test compound for 48 hours. Compounds are tested at a single concentration, which is 10^-5 M for most compounds. The reported endpoint is percent growth (GI% or GIPRCNT), where numbers from 0 - 100% represent growth inhibition, and numbers from -100% - 0 represent cell death. For example, a value of 40 represents 60% growth inhibition. […]
Compounds without any hit were thinned out: in the full panel of roughly 83,000, 20% have a hit.
measure name: growth (%)
Answers are plain numbers, in %.

N=C(N)c1ccc(-c2ccc(-c3cccs3)s2)nc1    97.8
COc1cc(Cn2c(-c3ccccc3)c(Cl)c3c2-c2oncc2CC3)cc(OC)c1    75.3
CCCCCCCOc1cccc(/C=C2/C(=O)N=C3SCCCN32)c1    83
COc1ccc2nc(-c3ccccc3)cc(C(C)=O)c2c1    96.6
N#CCC1CCCC1    120
COc1ccc(-c2cn[nH]c2-c2cc(OC)c(OC)c(OC)c2)cc1    29.2
CCc1c(C(=O)NCc2c(O)ccc3cccc(O)c23)[nH]c(C)c1C(C)=O    32.7
O=C(O)c1ccccc1C(=O)c1cccc2c(F)cccc12    103
Cc1nn2c(/C=C3/C(=O)Nc4ccc(Cl)cc43)c(-c3ccccc3)nc2s1    32.7
CC1(CO)CCCC12OCCO2 (stereo not drawn)    95.2

Batch request: growth for each of the following molecules.
1. COC(=O)[C@]12CC[C@@H](C)[C@H](C)[C@@H]1C1=CC[C@@H]3[C@@]4(C)C/C(=N\O)[C@H](O)[C@@]5(C)COC(=C45)C[C@@]3(C)[C@]1(C)CC2
2. CCN1CCN(c2ccc(Nc3ncnc4c3nnn4CCc3cc(OC)cc(OC)c3)cc2)CC1
3. Oc1ccc(/C=N\Nc2ccccn2)c(O)c1
4. c1ccc(COCC[P+](c2ccccc2)(c2ccccc2)c2ccccc2)cc1
5. O=[N+]([O-])C1CC2C=CC1C2 (stereo not drawn)

Result:
-91.3
110
46.3
-14.8
92.8

###

- Test system: HCT-15 colon
- assay procedure: NCI-60 one-dose screen, 48 h
- assay setup: 10 µM
About 83,000 compounds went through this panel and 20% of them were active in at least one assay; those are over-represented in the sample as a whole. Calls of active or inactive are those of the source. The calls were made as follows: active = growth percent below 10; inactive = the rest.
Your response should consist of one outcome taken from active, inactive

Use the examples below as a reference point.
CCOC(=O)c1ccc(N(C=O)CCC(=O)CCl)cc1    inactive
NC(N)=NS(=O)(=O)c1ccc(Nc2ccc3nnc(-c4ccncc4)n3n2)cc1    inactive
CCc1c(C)[nH]c(=O)c(C(N)=O)c1C#N    inactive

Q: Just curious, what result did C/C=C\COc1cc(C)c(Cl)cc1Cl get here?
Result: inactive

Q: Just curious, what result did N#CC1C=Cc2c(ccc3ccccc23)N1C(=O)c1ccccc1 (stereo unspecified) get here?
Result: inactive

Q: Just curious, what result did COCCNCC(O)Cn1c2ccc(Cl)cc2c2cc(Cl)ccc21 (stereo unspecified) get here?
Result: active

###

- Test system: SW-620 colon
- assay procedure: NCI-60 one-dose screen, 48 h
- assay setup: 10 µM
Compounds without any hit were thinned out: in the full panel of roughly 83,000, 20% have a hit. Active and inactive are the calls of the source. The calls were made as follows: active = growth percent below 10; inactive = the rest.
Your response should consist of one outcome taken from active, inactive

Use the examples below as a reference point.
CCCCCC(=O)N1c2ccccc2NC2=C(C(=O)CC(c3ccc(OC)c(OC)c3)C2)C1c1ccc(C(F)(F)F)cc1 (centres undefined)    inactive
CN1/C(=C\C(I)C(I)C2=[N+](C)c3ccccc3C2(C)C)C(C)(C)c2ccccc21 (centres undefined)    inactive
COC(=O)[C@]12CC[C@@H](C)[C@H](C)[C@@H]1C1=CC[C@@H]3[C@@]4(C)C[C@@H](O)[C@H](O)[C@@](C)(CO)[C@@H]4[C@H](O)C[C@@]3(C)[C@]1(C)CC2    active

# ---- query molecule ----
Q: Just curious, what result did O=c1c2cccc3c(Nc4ccc(Br)cn4)ccc(c32)c2nc3ccccc3n12 get here?
Result: inactive
